Entry source: patent US20250042857A1

# Tested on: p-ERK of PC-9 cells
# TEST_DESCRIPTION: p-ERK HTRF assay in PC-9 cells
# Format: cell-based
# TEST_SETTINGS: Homo sapiens, PC-9, 1 h, PC-9 lung cancer cells, 1 hour treatment, read-out: IC50, inhibitory activity on p-ERK of PC-9 cells
# Protocol: IC50 Values of Compounds Determined by p-ERK HTRF Assay in PC-9 Cells Experimental objective: an inhibitory effect of the test compounds on the phosphorylation of PC-9ERK of lung cancer cells at a cellular level was evaluated by detecting the phosphorylation of ERK. […]
RECORDED_METRIC: IC50

COMPOUND | ASSAY_SYSTEM | OBSERVED_RESULT
CC(=O)N1CC=C(c2cc3c(N[C@H](C)c4cccc(C(F)F)c4F)ccnc3cn2)CC1 [Compound B-3] | p-ERK of PC-9 cells | ≤ 300 nM
CC(=O)N1CCN(c2cc3c(N[C@H](C)c4cccc(C(F)F)c4F)ccnc3cn2)[C@H](CO)C1 [Compound B-47] | p-ERK of PC-9 cells | ≤ 300 nM
Cc1cc(N[C@H](C)c2cccc(C(F)F)c2F)c2cc(C3(O)CCC(O)CC3)ncc2n1 (single isomer, unassigned) [Compound B-88-P2] | p-ERK of PC-9 cells | 300 to 1000 nM
C[C@@H](Nc1ccnc2cnc(C3(O)CCN(C(=O)C4CC4)CC3)cc12)c1cccc(C(F)F)c1F [Compound B-128] | p-ERK of PC-9 cells | ≤ 300 nM
C[C@@H](Nc1ccnc2cnc(C3(O)CCN(C(=O)N4CC[C@H](O)C4)CC3)cc12)c1cccc(C(F)F)c1F [Compound B-161] | p-ERK of PC-9 cells | 300 to 1000 nM
C[C@@H](Nc1ccnc2cnc(N3CCOCC3)cc12)c1cccc(C(F)F)c1F [Compound B-21] | p-ERK of PC-9 cells | 300 to 1000 nM
Cc1nc(C2(O)CCN(C(=O)[C@H](C)O)CC2)cc2c(N[C@H](C)c3cccc(C(F)F)c3F)ccnc12 [Compound B-176] | p-ERK of PC-9 cells | 300 to 1000 nM
C[C@@H](Nc1ccnc2cnc(N3CCn4cncc4C3)cc12)c1cccc(C(F)F)c1F [Compound B-30] | p-ERK of PC-9 cells | ≤ 300 nM
C[C@@H](Nc1ccnc2cnc(C3(O)CCN(C(=O)CO)CC3)cc12)c1cccc(C#N)c1F [Compound B-167] | p-ERK of PC-9 cells | > 1000 nM
C[C@@H](Nc1ccnc2cnc(C3(O)CCN(C(=O)[C@H]4C[C@H](O)CN4)CC3)cc12)c1cccc(C(F)F)c1F [Compound B-144] | p-ERK of PC-9 cells | > 1000 nM
C[C@@H](Nc1ccnc2cnc(C3(O)CCN(C(=O)CO)CC3)cc12)c1cccc(C(F)(F)F)c1F [Compound B-118] | p-ERK of PC-9 cells | ≤ 300 nM
CC(=O)N1CCN(c2cc3c(N[C@H](C)c4cccc(C(F)F)c4F)ccnc3c(-c3cnn(C)c3)n2)CC1 [Compound B-169] | p-ERK of PC-9 cells | ≤ 300 nM
C[C@@H](Nc1ccnc2cnc(C3(O)CCN(C(=O)[C@@H]4CCOC4)CC3)cc12)c1cccc(C(F)F)c1F [Compound B-133] | p-ERK of PC-9 cells | ≤ 300 nM
C[C@@H](Nc1ccnc2cnc(C3(O)CCN(C(=O)CN4CCC(O)CC4)CC3)cc12)c1cccc(C(F)F)c1F [Compound B-149] | p-ERK of PC-9 cells | > 1000 nM
